target: M17 leucyl aminopeptidase (Plasmodium falciparum 3D7); test: PfM17LAP leucine aminopeptidase inhibitors, dose response, counter-screen for PfM18AAP inhibitor project, biochemical, QFRET, set 2 (AID 602220); conditions: recombinant PfM17LAP, H-Leu-NHMec fluorogenic cleavage
PROPERTY_NAME: pIC50
One number for each entry, as −log10 of the molar value.

# example entries with known answers
STRUCTURE_SMILES | QUANTITATIVE_READOUT
CN1CCN(c2nc(-c3ccc(O)c(O)c3)cs2)CC1 | 4.53
Oc1ccc(CCNc2ccnc3ccccc23)cc1O | 4.52
CN1CCN(CCc2ccc(O)c(O)c2)CC1 | 4.03

Provide pIC50 for all items below, preserving their order.
1. Oc1ccc(-c2csc(Nc3ncccn3)n2)cc1O
2. CN1CCN(CCCc2ccc(O)c(O)c2)CC1
3. Oc1ccc(-c2csc(NC3CCCC3)n2)cc1O
4. CCc1ccc(NC(=O)Cc2nc(-c3ccc(O)c(O)c3)cs2)cc1
5. Oc1ccc(CCNc2c3ccccc3nc3ccccc23)cc1O

[reply]
4.91
4.13
4.53
4.24
4.85
